This section presents molecules with their documented IC50 values.
Test system: BEAS2B cells
Protocol Description: Poly I:C-induced ICAM-1 induction in BEAS2B cells
Type: cell-based
Condition Description: Homo sapiens, BEAS-2B; Table 3; read-out: BEAS2B (polyIC) ICAM1 IC50
Measure Name: IC50

Smiles Repr: Cc1ccc(-n2nc(C(C)(C)C)cc2NC(=O)Nc2ccc(Oc3ccnc(NC(=O)NCC(=O)N4CCCC4)c3)c3ccccc23)cc1
Measure Name: IC50
Observed Result: < 0.01 µM

Smiles Repr: Cc1ccc(-n2nc(C(C)(C)C)cc2NC(=O)Nc2ccc(Oc3ccnc(NC(=O)NCC(=O)N4CCN(C)CC4)c3)c3ccccc23)cc1
Measure Name: IC50
Observed Result: < 0.01 µM

Smiles Repr: COCCNC(=O)CNC(=O)Nc1cc(Oc2ccc(NC(=O)Nc3cc(C(C)(C)C)nn3-c3ccc(C)cc3)c3ccccc23)ccn1
Measure Name: IC50
Observed Result: < 0.01 µM
